// values below are reported pIC50
# Target system: Proteasome subunit beta type-5 (Rattus norvegicus, UniProt P28075)
# Sequence (P28075 whole entry): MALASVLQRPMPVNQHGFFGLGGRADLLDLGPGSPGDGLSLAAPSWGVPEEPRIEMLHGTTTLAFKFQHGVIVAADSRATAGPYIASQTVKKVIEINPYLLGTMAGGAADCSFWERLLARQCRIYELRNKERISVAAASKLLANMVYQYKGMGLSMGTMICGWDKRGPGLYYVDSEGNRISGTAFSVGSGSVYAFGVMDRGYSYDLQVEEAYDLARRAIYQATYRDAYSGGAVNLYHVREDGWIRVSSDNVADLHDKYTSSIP
# Assay details: Inhibition of chymotrypsin-like activity of rat liver 26 proteasome assessed as decrease in fluorescence using succinyl-Leu-Leu-Val-Tyr-4-methylcoumaryl-7-amide as substrate preincubated for 30 mins followed by addition of substrate and measured after 1 hr by fluorescence based method
Quick note: pIC50 means taking -log10 of the concentration in moles per liter.

The following molecules have reported results that may help.
Molecule: C=CC(/C=C\c1ccc(O)cc1)c1ccc(O)cc1 (centres undefined)
Target system: Proteasome subunit beta type-5 (Rattus norvegicus, UniProt P28075)
Assay metric: pIC50
Numeric readout: 7.15
--
Molecule: Oc1ccc(CC2COc3cc(O)ccc3C2)cc1 (centres undefined)
Target system: Proteasome subunit beta type-5 (Rattus norvegicus, UniProt P28075)
Assay metric: pIC50
Numeric readout: 6.63

# input for lookup
Given the entry COc1cc(O)ccc1CCCc1ccc(O)cc1 , report its measured pIC50.
6.75
